target: His-SETD6 (Homo sapiens, UniProt Q8TBK2); construct: His; made in house; test: Surface plasmon resonance binding to immobilized His-SETD6; conditions: SPR ProteOn XPR36, His-SETD6 immobilized on GLM chip; analyte 62.5, 125, 250, 500 and 1000 nM, 100 μl/min; equilibrium analysis; BSA background subtracted; read-out: dissociation constant (KD)
Sequence (Q8TBK2 whole entry): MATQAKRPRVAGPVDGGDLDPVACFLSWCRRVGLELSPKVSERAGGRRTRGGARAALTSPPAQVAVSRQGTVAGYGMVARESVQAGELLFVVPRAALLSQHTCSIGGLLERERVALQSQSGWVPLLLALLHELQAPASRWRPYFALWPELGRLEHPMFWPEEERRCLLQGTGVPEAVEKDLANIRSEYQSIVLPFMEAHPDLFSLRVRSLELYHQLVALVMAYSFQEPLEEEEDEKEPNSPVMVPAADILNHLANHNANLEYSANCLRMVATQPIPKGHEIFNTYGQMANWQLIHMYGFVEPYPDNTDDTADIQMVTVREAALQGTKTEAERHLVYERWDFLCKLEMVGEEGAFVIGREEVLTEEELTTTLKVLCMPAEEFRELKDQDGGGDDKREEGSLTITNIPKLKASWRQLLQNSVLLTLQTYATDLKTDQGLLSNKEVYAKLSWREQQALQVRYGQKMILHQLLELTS
Where no end group is shown, it is not given here.
readout label: pKd
A value of pKd is the negative decimal logarithm of a concentration given in moles per litre.

Q. Quick one: pKd of HAIYPRHRKRTYETFKSIMKKS [vp22-RelA] ?
A. 5.96
